# protocol-notes: Metabolic stability in liver microsomes, HLM
# experimental-parameters: 1 μM, NADPH
Counter-ions that a name gives are not always drawn.
Lab note - cut at 70% for Metabolic stability HLM % remaining in 30 min: Yes if strictly below, No if not.

Threshold test, Metabolic stability HLM % remaining in 30 min < 70%: Nc1ccccc1NC(=O)c1ccc(CNC(=O)N2CCC(CNC3CC3c3ccc(F)cc3)CC2)cc1 (stereo not drawn) [Example 158, TFA Salt]
Yes

Threshold test, Metabolic stability HLM % remaining in 30 min < 70%: O=C(NO)c1ccc(/C=C/C(=O)N2CCC(CN[C@@H]3C[C@H]3c3ccccc3)CC2)cc1 [Example 114A, TFA Salt]
Yes

Threshold test, Metabolic stability HLM % remaining in 30 min < 70%: Nc1ccccc1NC(=O)c1ccc(CNC(=O)CNC2CC2c2ccc(F)cc2)cc1 (stereo not drawn) [Example 155, TFA Salt]
Yes

###

# study-target: HDAC6 human recombinant enzyme (Homo sapiens (Human), UniProt Q9UBN7)
# Sequence (Q9UBN7 whole entry): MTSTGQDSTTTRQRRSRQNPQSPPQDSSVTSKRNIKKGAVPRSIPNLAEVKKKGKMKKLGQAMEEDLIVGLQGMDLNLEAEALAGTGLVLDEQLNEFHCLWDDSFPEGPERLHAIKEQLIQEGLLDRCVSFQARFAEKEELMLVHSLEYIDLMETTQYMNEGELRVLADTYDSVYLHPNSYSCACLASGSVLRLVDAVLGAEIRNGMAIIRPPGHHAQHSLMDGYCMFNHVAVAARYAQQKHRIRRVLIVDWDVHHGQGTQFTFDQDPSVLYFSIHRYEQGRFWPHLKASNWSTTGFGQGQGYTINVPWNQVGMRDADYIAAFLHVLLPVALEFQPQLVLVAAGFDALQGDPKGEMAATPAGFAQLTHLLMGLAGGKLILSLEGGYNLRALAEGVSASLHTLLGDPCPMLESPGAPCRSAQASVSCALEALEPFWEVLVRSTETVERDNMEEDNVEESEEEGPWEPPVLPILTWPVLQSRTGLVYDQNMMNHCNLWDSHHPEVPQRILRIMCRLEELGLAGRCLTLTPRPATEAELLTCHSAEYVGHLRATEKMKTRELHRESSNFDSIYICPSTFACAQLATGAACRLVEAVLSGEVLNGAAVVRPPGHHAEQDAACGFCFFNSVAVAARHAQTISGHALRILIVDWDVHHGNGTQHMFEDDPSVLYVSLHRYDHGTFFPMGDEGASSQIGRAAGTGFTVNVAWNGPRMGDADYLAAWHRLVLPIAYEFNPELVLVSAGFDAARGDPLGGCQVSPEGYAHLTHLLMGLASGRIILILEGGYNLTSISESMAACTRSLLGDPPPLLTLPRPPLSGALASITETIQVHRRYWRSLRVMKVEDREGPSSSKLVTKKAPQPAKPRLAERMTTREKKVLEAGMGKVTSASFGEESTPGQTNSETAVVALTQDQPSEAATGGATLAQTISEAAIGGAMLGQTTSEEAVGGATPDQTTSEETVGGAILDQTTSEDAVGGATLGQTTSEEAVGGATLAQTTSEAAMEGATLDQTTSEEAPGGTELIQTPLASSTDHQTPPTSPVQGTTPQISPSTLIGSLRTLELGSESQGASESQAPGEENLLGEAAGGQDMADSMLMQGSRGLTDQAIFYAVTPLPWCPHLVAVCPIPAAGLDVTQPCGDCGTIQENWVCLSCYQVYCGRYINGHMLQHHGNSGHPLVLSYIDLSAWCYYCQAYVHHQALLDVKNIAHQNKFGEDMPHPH
# protocol-notes: Histone Deacetylase Assay (BPS Biosciences), HDAC6
# Format: biochemical
pIC50: −log10 of the molar value. Where a name gives a salt, the structure may show the parent alone.
Below is a list of entries, each paired with its recorded pIC50 value.

Some compounds with recorded pIC50:
{"compound": "Nc1ccccc1NC(=O)c1ccc(CCCn2cc(CNC3CC3c3ccccc3)nn2)cc1 (stereo not drawn) [Example 137, TFA Salt]", "measured-parameter": "pIC50", "result": "< 5.00"}
{"compound": "Nc1ccccc1NC(=O)c1cnc(CCCN2CCC(CNC3CC3c3ccccc3)CC2)s1 (stereo not drawn) [Example 154, TFA Salt]", "measured-parameter": "pIC50", "result": "< 5.00"}

Reported pIC50 ( Nc1ccccc1NC(=O)c1ccc(Cn2cc(CNC3CC3c3ccccc3)nn2)cc1 (stereo not drawn) [Example 146, TFA Salt] ) = < 5.00

###

# protocol-notes: Metabolic stability in liver microsomes, MLM
# experimental-parameters: 1 μM, NADPH
Counter-ions that a name gives are not always drawn.
Below is a list of entries, each paired with its recorded Metabolic stability MLM % remaining in 30 min value.

Some compounds with recorded Metabolic stability MLM % remaining in 30 min:
{"compound": "O=C(NO)c1ccc(CC(=O)N2CCC(CNC3CC3c3ccccc3)CC2)cc1 (stereo not drawn) [Example 84, TFA Salt]", "result": "40%"}
{"compound": "O=C(NO)c1ccc(CNC2CC2c2ccccc2)cc1 (stereo not drawn) [Example 28, TFA Salt]", "result": "35%"}

Next up:
Reported Metabolic stability MLM % remaining in 30 min ( Nc1ccccc1NC(=O)c1ccc(CCC(=O)N2CCC(CNC3CC3c3ccccc3)CC2)cc1 (stereo not drawn) [Example 134, TFA Salt] ) = 10/10%

###

# protocol-notes: Metabolic stability in liver microsomes, MLM
# experimental-parameters: 1 μM, NADPH
Structures can show the parent of a compound that is named as a salt.
Each entry belongs to exactly one class, chosen by where its Metabolic stability MLM % remaining in 30 min falls: zone 1: < 50%; zone 2: ≥ 50% and < 80%; zone 3: ≥ 80%

Previously resolved entries follow.
{"molecule": "Nc1ccccc1NC(=O)c1ccc(CCCN2CC3(CC(NC4CC4c4ccccc4)C3)C2)cc1 (stereo not drawn) [Example 127, TFA Salt]", "category-label": "zone 1"}
{"molecule": "O=C(NO)c1ccc(/C=C/C(=O)N2CCC(CN[C@@H]3C[C@H]3c3ccc(F)cc3)CC2)cc1 [Example 115A, TFA Salt]", "category-label": "zone 3"}
{"molecule": "O=C(NO)c1cc2c(s1)CCN(C(=O)CNC1CC1c1ccc(F)cc1)C2 (stereo not drawn) [Example 103, TFA Salt]", "category-label": "zone 2"}
{"molecule": "O=C(NO)c1cnc(N2CCC(CNC3CC3c3ccc(F)cc3)CC2)nc1 (stereo not drawn) [Example 8, TFA Salt]", "category-label": "zone 2"}
{"molecule": "O=C(/C=C/c1ccc(CNC2CC2c2ccc(OCc3ccc(F)cc3)cc2)cc1)NO (stereo not drawn) [Example 3, TFA Salt]", "category-label": "zone 1"}

Category of O=C(NO)c1csc(CCCN2CCC(CNC3CC3c3ccccc3)CC2)n1.O=C(O)C(F)(F)F (stereo not drawn) [Example 110] :
zone 3

Category of O=C(CCCCCNC1CC1c1ccccc1)NO (stereo not drawn) [Example 29, TFA Salt] :
zone 3

Category of O=C(NO)c1coc(CCCN2CCC(CNC3CC3c3ccccc3)CC2)n1.O=C(O)C(F)(F)F (stereo not drawn) [Example 113] :
zone 2

Category of O=C(NO)c1ccc2c(c1)CN(C(=O)CCCNC1CC1c1ccc(F)cc1)C2 (stereo not drawn) [Example 108, TFA Salt] :
zone 3

Category of O=C(NO)c1ccc(CCCN2CCC(NC3CC3c3ccccc3)CC2)cc1 (stereo not drawn) [Example 44, TFA Salt] :
zone 2

###

# protocol-notes: Metabolic stability in liver microsomes, MLM
# experimental-parameters: 1 μM, NADPH
Counter-ions that a name gives are not always drawn.
measured-parameter: Metabolic stability MLM % remaining in 30 min (%)
Quick reminder: number only, in %, skip the unit.

{"molecule": "O=C(NO)c1csc(CCCN2CCC(CNC3CC3c3ccc(-c4ccc(F)cc4)cc3)CC2)n1 (stereo not shown) [Example 111, TFA Salt]", "unit-descriptor": "%", "recorded-number": 91}
{"molecule": "O=C(NO)c1ccc(/C=C/C(=O)N2CCC(CN[C@H]3C[C@@H]3c3ccccc3)CC2)cc1 [Example 114B, TFA Salt]", "unit-descriptor": "%", "recorded-number": 43}

Reported Metabolic stability MLM % remaining in 30 min ( O=C(NO)c1ccc(CCCN2CCC(CNC3CC3c3ccc(-c4cncnc4)cc3)CC2)cc1 (stereo not shown) [Example 61, TFA Salt] ) = 66

Reported Metabolic stability MLM % remaining in 30 min ( O=C(/C=C/c1ccc(CNC2CC2c2ccc(-c3ccc(Cl)cc3)cc2)cc1)NO (stereo not shown) [Example 5, TFA Salt] ) = 59

Reported Metabolic stability MLM % remaining in 30 min ( O=C(NO)c1ccc2c(c1)CN(C(=O)CCCNC1CC1c1ccc(F)cc1)CC2 (stereo not shown) [Example 107, TFA Salt] ) = 67

Reported Metabolic stability MLM % remaining in 30 min ( Cc1noc(C)c1-c1ccc(C2CC2NCC2CCN(c3ncc(C(=O)NO)cn3)CC2)cc1 (stereo not shown) [Example 16, TFA Salt] ) = 25

Reported Metabolic stability MLM % remaining in 30 min ( O=C(NO)c1ccc(OCCN2CCC(CNC3CC3c3ccccc3)CC2)cc1 (stereo not shown) [Example 99, TFA Salt] ) = 76

Reported Metabolic stability MLM % remaining in 30 min ( Nc1ccccc1NC(=O)c1ccc(CNC(=O)CNC2CC2c2ccc(F)cc2)cc1 (stereo not shown) [Example 155, TFA Salt] ) = 34

Reported Metabolic stability MLM % remaining in 30 min ( Cn1ccc(-c2ccc(C3CC3NCC3CCN(CCCc4ccc(C(=O)NO)cc4)CC3)cc2)cc1=O (stereo not shown) [Example 60, TFA Salt] ) = 72

###

# protocol-notes: Metabolic stability in liver microsomes, MLM
# experimental-parameters: 1 μM, NADPH
Where a name gives a salt, the structure may show the parent alone.
measured-parameter: Metabolic stability MLM % remaining in 30 min (%)
Quick reminder: number only, in %, skip the unit.

Some compounds with recorded Metabolic stability MLM % remaining in 30 min:
{"compound": "O=C(NO)c1cc2c(s1)CCN(C(=O)CCCNC1CC1c1ccc(F)cc1)C2 (centres unmarked) [Example 105, TFA Salt]", "recorded-number": 72}
{"compound": "Cn1cc(-c2ccc(C3CC3NCC3CN(CCCc4ccc(C(=O)NO)cc4)C3)cc2)cn1 (centres unmarked) [Example 63, TFA Salt]", "recorded-number": 69}

Reported Metabolic stability MLM % remaining in 30 min ( COc1ccc(C2CC2NC2CCN(c3ncc(C(=O)NO)cn3)CC2)cc1 (centres unmarked) [Example 19, TFA Salt] ) = 71

Reported Metabolic stability MLM % remaining in 30 min ( O=C(NO)c1ccc(CCCN2CCC(CNC3CC3c3ccc(C(=O)N4CCCCC4)cc3)CC2)cc1 (centres unmarked) [Example 54, TFA Salt] ) = 72

Reported Metabolic stability MLM % remaining in 30 min ( O=C(NO)c1ccc2c(c1)CN(C(=O)CN[C@H]1C[C@@H]1c1ccc(F)cc1)CC2 [Example 104A, TFA Salt] ) = 68

###

# protocol-notes: Metabolic stability in liver microsomes, HLM
# experimental-parameters: 1 μM, NADPH
Structures can show the parent of a compound that is named as a salt.
Below is a list of entries, each paired with its recorded Metabolic stability HLM % remaining in 30 min value.
Quick reminder: number only, in %, skip the unit.

Some molecules with recorded Metabolic stability HLM % remaining in 30 min:
{"molecule": "O=C(NO)c1ccc(CN2CCn3cc(CNC4CC4c4ccc(F)cc4)nc3C2)cc1 (stereo not drawn) [Example 80, TFA Salt]", "recorded-number": 82}
{"molecule": "O=C(NO)c1ccc2c(c1)CN(C(=O)CNC1CC1c1ccc(F)cc1)CC2 (stereo not drawn) [Example 104, TFA Salt]", "recorded-number": 80}
{"molecule": "O=C(NO)c1ccc(CCCN2CCC(CNC3CC3c3ccc(-c4ccc(C(F)(F)F)nc4)cc3)CC2)cc1 (stereo not drawn) [Example 66, TFA Salt]", "recorded-number": 79}
{"molecule": "Nc1ccc(F)cc1NC(=O)c1ccc(CCCN2CCC(CNC3CC3c3ccc(F)cc3)CC2)cc1 (stereo not drawn) [Example 132, TFA Salt]", "recorded-number": 81}

Next up:
Reported Metabolic stability HLM % remaining in 30 min ( O=C(NO)c1ccc(C(=O)NCCN2CCC(CNC3CC3c3ccc(F)c(F)c3)CC2)cc1 (stereo not drawn) [Example 90, TFA Salt] ) = 80

FYI, the data here is from patent US11352322B2.
